Just for reference, ChEMBL document CHEMBL3877332 is where these values come from.

Task for the reader: assign each of the following molecules its reported pIC50.
experiment: Antiproliferative activity against human K562 cells assessed as reduction in cell viability by MTT assay; type: functional, cell-based
Give bare numbers, as −log10 of the molar value.

Clc1ccc(CN2C[C@H]3CCCN4CCC[C@@H]([C@H]34)[C@H]2CCCCNCCc2cccc3c2OCO3)cc1	5.96
COc1cc(CNCCCC[C@@H]2[C@H]3CCCN4CCC[C@H](CN2Cc2ccc(Cl)cc2)[C@@H]34)cc(OC)c1OC	5.99
Clc1ccc(CN2C[C@H]3CCCN4CCC[C@@H]([C@H]34)[C@H]2CCCCNCc2cccc3c2OCO3)cc1	5.94

Now for a further molecule.
What does the data say about its pIC50? Entry: CC[C@@]1(O)C(=O)OCc2c1cc1n(c2=O)Cc2cc3c(CN(C)C)c(O)ccc3nc2-1
5.94

====

Task for the reader: assign each of the following compounds its reported pIC50.
experiment: Antiproliferative activity against human HMLE cells assessed as reduction in cell viability by MTT assay; type: functional, cell-based
Answers are plain numbers, as −log10 of the molar value.

CC[C@@]1(O)C(=O)OCc2c1cc1n(c2=O)Cc2cc3c(CN(C)C)c(O)ccc3nc2-1	6.12
Clc1ccc(CN2C[C@H]3CCCN4CCC[C@@H]([C@H]34)[C@H]2CCCCNCc2cccc3c2OCO3)cc1	6.19

Give one value of pIC50 per listed compound.
1. Clc1ccc(CN2C[C@H]3CCCN4CCC[C@@H]([C@H]34)[C@H]2CCCCNCCc2cccc3c2OCO3)cc1
2. COc1cc(CNCCCC[C@@H]2[C@H]3CCCN4CCC[C@H](CN2Cc2ccc(Cl)cc2)[C@@H]34)cc(OC)c1OC

6.17
6.26

====

experiment: Cmax in Sprague-Dawley rat at 25 mg/kg, po measured up to 24 hrs; format: ADME, organism-based; parameters: dose 25 mg/kg, route oral; conditions: in vivo
quantity name: Cmax (nM)
Answers are plain numbers, in nM.

Clc1ccc(CN2C[C@H]3CCCN4CCC[C@@H]([C@H]34)[C@H]2CCCCNCCc2cccc3c2OCO3)cc1	2900
COc1cc(CNCCCC[C@@H]2[C@H]3CCCN4CCC[C@H](CN2Cc2ccc(Cl)cc2)[C@@H]34)cc(OC)c1OC	4900

Now for a further compound.
What does the data say about its Cmax? Entry: Clc1ccc(CN2C[C@H]3CCCN4CCC[C@@H]([C@H]34)[C@H]2CCCCNCc2cccc3c2OCO3)cc1
2700

====

test: MRT in Sprague-Dawley rat at 25 mg/kg, po measured up to 24 hrs; type: ADME, organism-based; conditions: in vivo
quantity name: MRT (h)
Numbers only, in h.

Clc1ccc(CN2C[C@H]3CCCN4CCC[C@@H]([C@H]34)[C@H]2CCCCNCc2cccc3c2OCO3)cc1	9.1

Give one value of MRT per listed molecule.
1. COc1cc(CNCCCC[C@@H]2[C@H]3CCCN4CCC[C@H](CN2Cc2ccc(Cl)cc2)[C@@H]34)cc(OC)c1OC
2. Clc1ccc(CN2C[C@H]3CCCN4CCC[C@@H]([C@H]34)[C@H]2CCCCNCCc2cccc3c2OCO3)cc1

11.6
10.8
